# Experimental target: Human C3 (Complement tech cat #A113c) (human, UniProt P01024 23-1663)
# Sequence (P01024 23-1663 limits assumed): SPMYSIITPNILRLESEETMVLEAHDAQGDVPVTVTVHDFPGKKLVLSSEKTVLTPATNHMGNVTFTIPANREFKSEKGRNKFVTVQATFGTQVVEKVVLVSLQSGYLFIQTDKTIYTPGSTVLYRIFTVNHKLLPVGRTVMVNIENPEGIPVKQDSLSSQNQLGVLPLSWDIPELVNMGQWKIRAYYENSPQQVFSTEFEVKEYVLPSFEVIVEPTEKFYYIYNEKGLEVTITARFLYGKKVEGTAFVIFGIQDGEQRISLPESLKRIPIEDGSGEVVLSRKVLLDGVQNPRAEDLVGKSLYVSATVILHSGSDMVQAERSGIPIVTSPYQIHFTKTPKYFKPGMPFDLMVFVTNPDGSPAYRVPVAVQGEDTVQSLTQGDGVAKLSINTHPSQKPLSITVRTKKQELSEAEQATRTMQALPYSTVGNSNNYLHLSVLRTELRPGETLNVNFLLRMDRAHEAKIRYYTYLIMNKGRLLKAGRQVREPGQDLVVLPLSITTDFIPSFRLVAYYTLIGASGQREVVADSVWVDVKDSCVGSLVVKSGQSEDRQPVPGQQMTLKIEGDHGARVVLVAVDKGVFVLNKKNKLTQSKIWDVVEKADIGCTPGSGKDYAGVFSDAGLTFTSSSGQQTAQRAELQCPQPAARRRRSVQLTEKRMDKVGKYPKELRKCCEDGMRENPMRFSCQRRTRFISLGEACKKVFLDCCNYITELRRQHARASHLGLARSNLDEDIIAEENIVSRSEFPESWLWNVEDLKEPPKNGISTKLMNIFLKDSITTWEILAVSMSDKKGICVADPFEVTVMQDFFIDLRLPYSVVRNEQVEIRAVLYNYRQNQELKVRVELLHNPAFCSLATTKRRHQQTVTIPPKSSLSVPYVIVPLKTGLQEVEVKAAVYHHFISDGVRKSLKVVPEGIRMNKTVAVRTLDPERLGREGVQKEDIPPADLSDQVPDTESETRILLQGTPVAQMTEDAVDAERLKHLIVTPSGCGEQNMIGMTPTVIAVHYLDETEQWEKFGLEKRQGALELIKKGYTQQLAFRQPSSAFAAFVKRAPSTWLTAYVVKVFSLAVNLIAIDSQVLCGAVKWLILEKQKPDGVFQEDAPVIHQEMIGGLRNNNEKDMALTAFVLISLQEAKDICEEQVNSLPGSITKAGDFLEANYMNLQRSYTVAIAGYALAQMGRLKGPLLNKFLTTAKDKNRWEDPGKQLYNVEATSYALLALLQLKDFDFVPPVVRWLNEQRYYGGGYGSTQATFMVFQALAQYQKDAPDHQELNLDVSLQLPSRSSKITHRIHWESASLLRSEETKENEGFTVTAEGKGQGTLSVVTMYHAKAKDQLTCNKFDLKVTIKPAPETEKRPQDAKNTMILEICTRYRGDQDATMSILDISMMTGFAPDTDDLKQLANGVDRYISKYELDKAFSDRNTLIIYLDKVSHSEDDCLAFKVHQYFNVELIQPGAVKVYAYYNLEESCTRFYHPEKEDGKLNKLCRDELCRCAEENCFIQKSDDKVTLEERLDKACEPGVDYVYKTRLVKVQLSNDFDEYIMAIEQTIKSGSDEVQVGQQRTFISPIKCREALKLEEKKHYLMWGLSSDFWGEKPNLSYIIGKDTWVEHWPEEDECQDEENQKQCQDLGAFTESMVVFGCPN
# Protocol summary: cell-based or functional assay
Positions of bridges follow the written chain, without caps; N, C: chain ends. Non-standard residues stand in square brackets, D forms with d. Trp(1-Me) = Cn1cc(C[C@H](N)C(=O)O)c2ccccc21
Readout kind: inhibition of hemolysis IC50

# input Entry Ac-ICI[Trp(1-Me)]QDWGEHRCT-NH2 (disulfide 2-12; SMILES CC[C@H](C)[C@H](NC(C)=O)C(=O)N[C@H]1CSSC[C@@H](C(=O)N[C@H](C(N)=O)[C@@H](C)O)NC(=O)[C@H](CCCNC(=N)N)NC(=O)[C@H](Cc2c[nH]cn2)NC(=O)[C@H](CCC(=O)O)NC(=O)CNC(=O)[C@H](Cc2c[nH]c3ccccc23)NC(=O)[C@H](CC(=O)O)NC(=O)[C@H](CCC(N)=O)NC(=O)[C@H](Cc2cn(C)c3ccccc23)NC(=O)[C@H]([C@@H](C)CC)NC1=O) [Compound 4] : reported inhibition of hemolysis IC50 = ?
# output < 100 nM

# input Now this one: Ac-ICIWQDWGAHRCE-NH2 (disulfide 2-12; SMILES CC[C@H](C)[C@H](NC(C)=O)C(=O)N[C@H]1CSSC[C@@H](C(=O)N[C@@H](CCC(=O)O)C(N)=O)NC(=O)[C@H](CCCNC(=N)N)NC(=O)[C@H](Cc2c[nH]cn2)NC(=O)[C@H](C)NC(=O)CNC(=O)[C@H](Cc2c[nH]c3ccccc23)NC(=O)[C@H](CC(=O)O)NC(=O)[C@H](CCC(N)=O)NC(=O)[C@H](Cc2c[nH]c3ccccc23)NC(=O)[C@H]([C@@H](C)CC)NC1=O) [Compound 12]
# output < 100 nM
